Cited source for all entries: patent US6589993B2

test system: S. aureus Met-R multiresistant strains; assay: MIC determination (NCCLS broth microdilution), methicillin-resistant multiresistant S. aureus strains; assay type: cell-based, Staphylococcus aureus; settings: Staphylococcus aureus, Strain 14; antibiotype Oxa, Clin, Cip, Ery; read-out: MIC
Provide the reported MIC of each item.
The answer is to be given in µg/mL; state only the numeric part.

Qu. Answer with reported MIC of CS(=O)(=O)c1ccc([C@@H](O)[C@@H](CO)NC(=O)C(Cl)Cl)cc1
Ans. 16

Qu. Answer with reported MIC of O=C(N[C@H](CO)[C@H](O)c1ccc([N+](=O)[O-])cc1)C(Cl)Cl
Ans. 8

----------
tested on: S. aureus Met-R multiresistant strains; assay: MIC determination (NCCLS broth microdilution), methicillin-resistant multiresistant S. aureus strains; type: cell-based, Staphylococcus aureus; details: Staphylococcus aureus, Strain 3; antibiotype Oxa, Cip, Clin, Ery, Gm; read-out: MIC
Provide the reported MIC of each item.

Qu. Answer with reported MIC of CS(=O)(=O)c1ccc([C@@H](O)[C@@H](CO)NC(=O)C(Cl)Cl)cc1
Ans. 16 µg/mL

Qu. Answer with reported MIC of CC[C@H]1OC(=O)[C@H](C)[C@@H](O[C@H]2C[C@@](C)(OC)[C@@H](O)[C@H](C)O2)[C@H](C)[C@@H](O[C@@H]2O[C@H](C)C[C@H](N(C)C)[C@H]2O)[C@](C)(O)C[C@@H](C)C(=O)[C@H](C)[C@@H](O)[C@]1(C)O
Ans. > 64 µg/mL

Qu. Answer with reported MIC of O=C(N[C@H](CO)[C@H](O)c1ccc([N+](=O)[O-])cc1)C(Cl)Cl
Ans. 4 µg/mL

Qu. Answer with reported MIC of COc1cccc(OC)c1C(=O)N[C@@H]1C(=O)N2[C@@H]1SC(C)(C)[C@@H]2C(=O)O
Ans. > 64 µg/mL

Qu. Answer with reported MIC of CCC[C@@H]1C[C@@H](C(=O)N[C@@H]([C@H]2O[C@H](SC)[C@H](O)[C@@H](O)[C@H]2O)[C@H](C)Cl)N(C)C1
Ans. > 64 µg/mL

----------
Provide the reported MIC of each item.
test system: S. aureus Met-R multiresistant strains; experiment: MIC determination (NCCLS broth microdilution), methicillin-resistant multiresistant S. aureus strains; type: cell-based, Staphylococcus aureus; conditions: Staphylococcus aureus, Strain 16; antibiotype Oxa, Cip, Clin, Ery; read-out: MIC

Qu. Answer with reported MIC of COc1cccc(OC)c1C(=O)N[C@@H]1C(=O)N2[C@@H]1SC(C)(C)[C@@H]2C(=O)O
Ans. > 64 µg/mL

Qu. Answer with reported MIC of CC[C@H]1OC(=O)[C@H](C)[C@@H](O[C@H]2C[C@@](C)(OC)[C@@H](O)[C@H](C)O2)[C@H](C)[C@@H](O[C@@H]2O[C@H](C)C[C@H](N(C)C)[C@H]2O)[C@](C)(O)C[C@@H](C)C(=O)[C@H](C)[C@@H](O)[C@]1(C)O
Ans. > 64 µg/mL

Qu. Answer with reported MIC of CCC[C@@H]1C[C@@H](C(=O)N[C@@H]([C@H]2O[C@H](SC)[C@H](O)[C@@H](O)[C@H]2O)[C@H](C)Cl)N(C)C1
Ans. > 64 µg/mL
